Test system: PDC KRAS tumor spheroids with HUVEC/MSC, viability
PROTOCOL: Anticancer human tumor 349418-098-R-PDC patient-derived lung adenocarcinoma cell line growth inhibition [KRAS2]
CONDITION PARAMETERS: second compound 0.1 µM; first compound 0.0316 µM; stronger effect = lower value
QUANTITY MEASURED: viability, T/C

stdin: What value of measured viability, T/C is listed for COC(=O)c1ccc2c(C(=Nc3ccc(N(C)C(=O)CN4CCN(C)CC4)cc3)c3ccccc3)c(O)[nH]c2c1 + C=CC(=O)N1CCN(c2nc(OCC3CCCN3C)nc3c2CCN(c2cccc4cccc(C)c24)C3)CC1CC#N ?
stdout: 88.9%

stdin: Try this molecule next: COC(=O)c1ccc2c(C(=Nc3ccc(N(C)C(=O)CN4CCN(C)CC4)cc3)c3ccccc3)c(O)[nH]c2c1 + COc1cc2nc(C)nc(NC(C)c3cc(N)cc(C(F)(F)F)c3)c2cc1OC1CCOC1
stdout: 113%

stdin: Try this molecule next: CC(=O)Nc1cccc(-n2c(=O)n(C3CC3)c(=O)c3c(Nc4ccc(I)cc4F)n(C)c(=O)c(C)c32)c1 + COc1cc2nc(C)nc(NC(C)c3cc(N)cc(C(F)(F)F)c3)c2cc1OC1CCOC1
stdout: 5.51%

stdin: Try this molecule next: CC(C)NCC(C(=O)N1CCN(c2ncnc3c2C(C)CC3O)CC1)c1ccc(Cl)cc1 (stereo not given) + C=CC(=O)N1CCN(c2nc(=O)n(-c3c(C)ccnc3C(C)C)c3nc(-c4c(O)cccc4F)c(F)cc23)C(C)C1
stdout: 101%

stdin: Try this molecule next: O=C(c1cc(Cc2n[nH]c(=O)c3ccccc23)ccc1F)N1CCN(C(=O)C2CC2)CC1 + C=CC(=O)N1CCN(c2nc(=O)n(-c3c(C)ccnc3C(C)C)c3nc(-c4c(O)cccc4F)c(F)cc23)C(C)C1
stdout: 84.6%

====

Tested on: PDC KRAS tumor spheroids with HUVEC/MSC, viability
PROTOCOL: Anticancer human tumor 349418-098-R-PDC cell line growth inhibition [KRAS2]; active = viability on the fitted dose curve at most 10% of control; inactive = the rest;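 further: spheroids exposed to compounds for seven days before readout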
CONDITION PARAMETERS: second compound 0.316 µM; first compound 0.001 µM
Respond using exactly one of the listed classes: T = active, F = inactive

As a guide, the following entries are already answered.
# COMPOUND, TGT, LABEL CLASS
data = [
    ("Cn1ncnc1[C@H]1c2n[nH]c(=O)c3cc(F)cc(c23)N[C@@H]1c1ccc(F)cc1 + COc1cc2nc(C)nc(NC(C)c3cc(N)cc(C(F)(F)F)c3)c2cc1OC1CCOC1", "PDC KRAS tumor spheroids with HUVEC/MSC, viability", "F"),
    ("CN(C)C/C=C/C(=O)Nc1cc2c(Nc3ccc(F)c(Cl)c3)ncnc2cc1O[C@H]1CCOC1 + CNCc1ccccc1-c1csc(C(C)Nc2nc(C)nc3cc(OC)c(OC)cc23)c1", "PDC KRAS tumor spheroids with HUVEC/MSC, viability", "F"),
]

Query compound follows.
stdin: Would you mind telling me which call this test gave CC(=O)Nc1cccc(-n2c(=O)n(C3CC3)c(=O)c3c(Nc4ccc(I)cc4F)n(C)c(=O)c(C)c32)c1 + CNCc1ccccc1-c1csc(C(C)Nc2nc(C)nc3cc(OC)c(OC)cc23)c1 ?
stdout: T

====

Test system: PDC KRAS tumor spheroids with HUVEC/MSC, viability
PROTOCOL: Anticancer human tumor 349418-098-R-PDC cell line growth inhibition [KRAS2];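 further: spheroids exposed to compounds for seven days before readout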
CONDITION PARAMETERS: curve of first compound; second compound 10 µM
Items are presented alongside their recorded IC50.

Solved cases below.
# COMPOUND, QUANTITY MEASURED, RESULT
records = [
    ("CC(C)n1nc(-c2ccc3oc(N)nc3c2)c2c(N)ncnc21 + CC1OCC2(CCN(c3cnc(Sc4ccnc(N)c4Cl)c(N)n3)CC2)C1N", "IC50", "0.95 nM"),
    ("O=C(c1cc(Cc2n[nH]c(=O)c3ccccc23)ccc1F)N1CCN(C(=O)C2CC2)CC1 + COc1cc2nc(C)nc(NC(C)c3cc(N)cc(C(F)(F)F)c3)c2cc1OC1CCOC1", "IC50", "87.3 nM"),
    ("Cn1nccc1Nc1nccc(-c2cc3c(s2)C(C)(C)N(CCN2CCOCC2)C3=O)n1 + CNCc1ccccc1-c1csc(C(C)Nc2nc(C)nc3cc(OC)c(OC)cc23)c1", "IC50", "< 31.6 nM"),
]

stdin: What value of measured IC50 is listed for CC(C)NCC(C(=O)N1CCN(c2ncnc3c2C(C)CC3O)CC1)c1ccc(Cl)cc1 (stereo unspecified) + CC1OCC2(CCN(c3cnc(Sc4ccnc(N)c4Cl)c(N)n3)CC2)C1N ?
stdout: 401 nM

stdin: Try this compound next: CC1COCCN1c1cc(-c2ccnn2C)c2ccnc(-c3ccn[nH]3)c2n1 (stereo unspecified) + C=CC(=O)N1CCN(c2nc(=O)n(-c3c(C)ccnc3C(C)C)c3nc(-c4c(O)cccc4F)c(F)cc23)C(C)C1
stdout: < 10 nM

stdin: Try this compound next: CCNC(=O)CC1N=C(c2ccc(Cl)cc2)c2cc(OC)ccc2-n2c(C)nnc21 (stereo unspecified) + CNCc1ccccc1-c1csc(C(C)Nc2nc(C)nc3cc(OC)c(OC)cc23)c1
stdout: < 31.6 nM

====

System: PDC KRAS tumor spheroids with HUVEC/MSC, viability
PROTOCOL: Anticancer human tumor 349418-098-R-PDC cell line growth inhibition [KRAS2];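 further: spheroids exposed to compounds for seven days before readout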
CONDITION PARAMETERS: second compound 3.16 µM; first compound 0.1 µM; stronger effect = lower value
Items are presented alongside their recorded viability, T/C.
// return numeric value only (unit: %, not printed)

# MOLECULE, NUMERIC RESULT
rows = [
    ("Cn1nccc1Nc1nccc(-c2cc3c(s2)C(C)(C)N(CCN2CCOCC2)C3=O)n1 + COc1cc2nc(C)nc(NC(C)c3cc(N)cc(C(F)(F)F)c3)c2cc1OC1CCOC1", 19.1),
]

stdin: What value of measured viability, T/C is listed for CCNC(=O)CC1N=C(c2ccc(Cl)cc2)c2cc(OC)ccc2-n2c(C)nnc21 (stereo not drawn) + CNCc1ccccc1-c1csc(C(C)Nc2nc(C)nc3cc(OC)c(OC)cc23)c1 ?
stdout: 0.08

stdin: Try this molecule next: CC(=O)OC12COC1CC(O)C1(C)C(=O)C(O)C3=C(C)C(OC(=O)C(O)C(NC(=O)OC(C)(C)C)c4ccccc4)CC(O)(C(OC(=O)c4ccccc4)C21)C3(C)C (stereo not drawn) + CNCc1ccccc1-c1csc(C(C)Nc2nc(C)nc3cc(OC)c(OC)cc23)c1
stdout: 0.09

====

Test system: PDC KRAS tumor spheroids with HUVEC/MSC, viability
PROTOCOL: Anticancer human tumor 349418-098-R-PDC cell line growth inhibition [KRAS2]; active = viability on the fitted dose curve at most 10% of control; inactive = the rest;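 further: spheroids exposed to compounds for seven days before readout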
CONDITION PARAMETERS: second compound 10 µM; first compound 0.01 µM
Respond using exactly one of the listed classes: active, inactive

As a guide, the following entries are already answered.
# MOLECULE, LABEL CLASS
measured = [
    ("CCN1CCN(Cc2ccc(Nc3ncc(F)c(-c4cc(F)c5nc(C)n(C(C)C)c5c4)n3)nc2)CC1 + CNCc1ccccc1-c1csc(C(C)Nc2nc(C)nc3cc(OC)c(OC)cc23)c1", "active"),
    ("CN(C)C/C=C/C(=O)Nc1cc2c(Nc3ccc(F)c(Cl)c3)ncnc2cc1O[C@H]1CCOC1 + C=CC(=O)N1CCN(c2nc(=O)n(-c3c(C)ccnc3C(C)C)c3nc(-c4c(O)cccc4F)c(F)cc23)C(C)C1", "inactive"),
    ("CN(C)C/C=C/C(=O)Nc1cc2c(Nc3ccc(F)c(Cl)c3)ncnc2cc1O[C@H]1CCOC1 + CC1OCC2(CCN(c3cnc(Sc4ccnc(N)c4Cl)c(N)n3)CC2)C1N", "inactive"),
]

stdin: Would you mind telling me which call this test gave CC1COCCN1c1cc(-c2ccnn2C)c2ccnc(-c3ccn[nH]3)c2n1 (stereo not given) + CC1OCC2(CCN(c3cnc(Sc4ccnc(N)c4Cl)c(N)n3)CC2)C1N ?
stdout: inactive

stdin: Try this molecule next: CC1COCCN1c1cc(-c2ccnn2C)c2ccnc(-c3ccn[nH]3)c2n1 (stereo not given) + C=CC(=O)N1CCN(c2nc(=O)n(-c3c(C)ccnc3C(C)C)c3nc(-c4c(O)cccc4F)c(F)cc23)C(C)C1
stdout: inactive

====

Items are presented alongside their recorded viability, T/C.
Tested on: PDC KRAS tumor spheroids with HUVEC/MSC, viability
PROTOCOL: Anticancer human tumor 349418-098-R-PDC cell line growth inhibition [KRAS2];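 further: spheroids exposed to compounds for seven days before readout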
CONDITION PARAMETERS: second compound 10 µM; first compound 0.01 µM; stronger effect = lower value
Description: Multicellular complex tumor spheroid response to RAS pathway inhibitors in combination with a targeted agents in patient-derived cell lines with oncogenic KRAS variants from multiple cancer types A high-throughput screen of multi-cell type tumor spheroids was designed to identify active combinations of targeted small molecules and KRAS pathway inhibitors. […] Compounds. […] If the clinical Cmax for an agent had not been determined, the highest concentration tested was 10 microM. […]
// return numeric value only (unit: %, not printed)

Solved cases below.
# COMPOUND, NUMERIC RESULT
rows = [
    ("Cn1ncnc1[C@H]1c2n[nH]c(=O)c3cc(F)cc(c23)N[C@@H]1c1ccc(F)cc1 + COc1cc2nc(C)nc(NC(C)c3cc(N)cc(C(F)(F)F)c3)c2cc1OC1CCOC1", 23.2),
    ("CCN1CCN(Cc2ccc(Nc3ncc(F)c(-c4cc(F)c5nc(C)n(C(C)C)c5c4)n3)nc2)CC1 + C=CC(=O)N1CCN(c2nc(=O)n(-c3c(C)ccnc3C(C)C)c3nc(-c4c(O)cccc4F)c(F)cc23)C(C)C1", 14.2),
]

stdin: What value of measured viability, T/C is listed for Cn1ncnc1[C@H]1c2n[nH]c(=O)c3cc(F)cc(c23)N[C@@H]1c1ccc(F)cc1 + CC1OCC2(CCN(c3cnc(Sc4ccnc(N)c4Cl)c(N)n3)CC2)C1N ?
stdout: 66.7

stdin: Try this compound next: CC(=O)Nc1cccc(-n2c(=O)n(C3CC3)c(=O)c3c(Nc4ccc(I)cc4F)n(C)c(=O)c(C)c32)c1 + CNCc1ccccc1-c1csc(C(C)Nc2nc(C)nc3cc(OC)c(OC)cc23)c1
stdout: 0.08

stdin: Try this compound next: CC1COCCN1c1cc(-c2ccnn2C)c2ccnc(-c3ccn[nH]3)c2n1 (stereo not given) + COc1cc2nc(C)nc(NC(C)c3cc(N)cc(C(F)(F)F)c3)c2cc1OC1CCOC1
stdout: 36.6
